Tested on: rabbit skeletal myofibrils (fast skeletal myofibrils)
Experiment: Activation of fast skeletal myofibrils (PUMA assay, PK/LDH-coupled ATPase at pCa25)
Assay type: biochemical
Settings: median AC1.4 reported as class; procedure of Example 39
Assay Metric: Mean AC1.4

molecule=CNC(=O)Cc1cnc(-c2nnc(NCC3(c4ncccc4F)CCC3)cc2C)s1 assay_metric="Mean AC1.4" reported_result="B (B=1-10 uM)"
molecule=CN(C)C(=O)c1ccc(NCC2(c3ncccc3F)CCC2)nn1 assay_metric="Mean AC1.4" reported_result="D (D=>20 uM)"
molecule=NC(=O)c1ccc(O)c(-c2ccc(NCC3(c4ncccc4F)CCC3)nn2)c1 assay_metric="Mean AC1.4" reported_result="B (B=1-10 uM)"
molecule="NC(=O)C1CCc2sc(-c3ccc(NCC4(c5ncccc5F)CCC4)nn3)nc21 (stereo not shown)" assay_metric="Mean AC1.4" reported_result="D (D=>20 uM)"
molecule=O=C(O)c1ccc(NCC2(c3ncccc3F)CCC2)nn1 assay_metric="Mean AC1.4" reported_result="D (D=>20 uM)"
molecule=CN(Cc1cnc(-c2ccc(NCC3(c4ncccc4F)CCC3)nn2)s1)C(=O)CO assay_metric="Mean AC1.4" reported_result="B (B=1-10 uM)"
molecule=CNc1ccc(-c2ccc(NC[C@]3(c4ncccc4F)C[C@H](F)C3)nn2)cc1C(=O)OC assay_metric="Mean AC1.4" reported_result="B (B=1-10 uM)"
molecule="O=C1CCC(CNC(=O)c2ccc(NCC3(c4ncccc4F)CCC3)nn2)N1 (stereo not shown)" assay_metric="Mean AC1.4" reported_result="D (D=>20 uM)"

====

Test system: rabbit skeletal myofibrils (fast skeletal myofibrils)
Experiment: Activation of fast skeletal myofibrils (PUMA assay, PK/LDH-coupled ATPase at pCa25)
Assay type: biochemical
Details: AC1.4 determined according to the procedure of Example 39; reported as class symbols
Source text: Preparation of Fast Skeletal Myofibrils. […] Fast fiber activators were identified by measuring the enzymatic activity of muscle myofibril preparations using the proprietary PUMA™ (see, e.g., U.S. Pat. Nos. 6,410,254, 6,743,599, 7,202,051, and 7,378,254) assay system. […] This assay regenerates myosin-produced ADP into ATP by oxidizing NADH, producing an absorbance change at 340 nm. […]
Assay Metric: Mean AC1.4

compound_structure_string=CC(C)(O)c1ccc(C(C)(C)CNc2ccc(-c3ccc4[nH]nc(N)c4c3)nn2)cc1 reported_result="D (D=>20 uM)"
compound_structure_string=CC(C)(O)c1n[nH]c2ccc(-c3ccc(NCC(C)(C)c4ccc(F)cc4)nn3)cc12 reported_result="B (B=1-10 uM)"
compound_structure_string=CC(C)(CNc1ccc(-c2cccnc2O)nn1)c1ccc(F)cc1 reported_result="B (B=1-10 uM)"
compound_structure_string=CC(C)(CNc1ccc(-c2ccc3[nH]ncc3c2)nn1)c1ncccc1F reported_result="B (B=1-10 uM)"
compound_structure_string=CC(=O)c1ccc(NCC(C)(C)c2ccc(F)cc2)nn1 reported_result="D (D=>20 uM)"
compound_structure_string=O=c1[nH]c2ccc(-c3ccc(NCC4(c5ccc(F)cc5)CC4)nn3)cc2[nH]1 reported_result="A (A=<1 uM)"
compound_structure_string=CC(C)(CNc1ccc(-c2ccccc2F)nn1)c1ccc(F)cc1 reported_result="A (A=<1 uM)"
compound_structure_string=CC(C)(CNc1ccc(-c2ccc3[nH]nc(N)c3c2)nn1)c1ncccc1F reported_result="B (B=1-10 uM)"
compound_structure_string=COc1cccnc1C1(CNc2ccc(-c3ccc4[nH]ncc4c3)nn2)CCC1 reported_result="B (B=1-10 uM)"

====

Test system: rabbit skeletal myofibrils (fast skeletal myofibrils)
Assay: Activation of fast skeletal myofibrils (PUMA assay, PK/LDH-coupled ATPase at pCa25)
Assay type: biochemical
Conditions: median AC1.4 class, procedure of Example 39
Assay Metric: Mean AC1.4

compound=CC(C)(O)C(=O)NCc1cnc(-c2ccc(NCC3(c4ncccc4F)CCC3)nn2)s1 reported_result="A (A=<1 uM)"
compound=O=C1CN(C(=O)c2cnc(-c3ccc(NCC4(c5ncccc5F)CCC4)nn3)s2)CCN1 reported_result="C (C=10-20 uM)"
compound=CC(C)(CNc1ccc(-c2cc(C#N)ccc2F)nn1)c1ncccc1Cl reported_result="B (B=1-10 uM)"
compound=Fc1cccnc1C1(CNc2ccc(-c3nccs3)nn2)CCC1 reported_result="B (B=1-10 uM)"
compound=NC(=O)c1cccc(-c2ccc(NC3(c4ccccc4F)CCC3)nn2)c1 reported_result="A (A=<1 uM)"
compound=N#C/N=C(/N)c1cnc(-c2ccc(NCC3(c4ncccc4F)CCC3)nn2)s1 reported_result="B (B=1-10 uM)"
compound=O=C(NCc1cnc(-c2ccc(NCC3(c4ncccc4F)CCC3)nn2)s1)[C@H]1C[C@@H](F)CN1 reported_result="A (A=<1 uM)"
compound="NC(=O)NC1CC(c2ccc(NCC3(c4ncccc4F)CCC3)nn2)C1 (stereo not shown)" reported_result="C (C=10-20 uM)"
compound=NCCNC(=O)c1cnc(-c2ccc(NCC3(c4ncccc4F)CCC3)nn2)s1 reported_result="A (A=<1 uM)"
compound=O=C1CC[C@H](C(=O)NCc2cnc(-c3ccc(NCC4(c5ncccc5F)CCC4)nn3)s2)CN1 reported_result="A (A=<1 uM)"

====

Test system: rabbit skeletal myofibrils (fast skeletal myofibrils)
Assay: Activation of fast skeletal myofibrils (PUMA assay, PK/LDH-coupled ATPase at pCa25)
Format: biochemical
Settings: AC1.4 determined according to the procedure of Example 39; reported as class symbols
Assay Metric: Mean AC1.4

compound="CC(C)(CNc1ccc(C(=O)N2CCC(C(N)=O)C2)nn1)c1ccc(F)cc1 (stereo not shown)" tested_target="rabbit skeletal myofibrils (fast skeletal myofibrils)" reported_result="D (D=>20 uM)"
compound=N#Cc1cccc(-c2ccc(NCC3(C(=O)O)CCC3)nn2)c1 tested_target="rabbit skeletal myofibrils (fast skeletal myofibrils)" reported_result="D (D=>20 uM)"
compound=Oc1ccnc(C2(CNc3ccc(-c4ccc5[nH]ncc5c4)nn3)CCC2)c1 tested_target="rabbit skeletal myofibrils (fast skeletal myofibrils)" reported_result="D (D=>20 uM)"
compound=CC(C)(C)OC(=O)N1CCN(C(=O)c2cccc(-c3ccc(NCC(C)(C)c4ccc(F)cc4)nn3)c2)CC1 tested_target="rabbit skeletal myofibrils (fast skeletal myofibrils)" reported_result="B (B=1-10 uM)"
compound=CC(C)(CNc1ccc(CNS(C)(=O)=O)nn1)c1ccc(F)cc1 tested_target="rabbit skeletal myofibrils (fast skeletal myofibrils)" reported_result="B (B=1-10 uM)"
compound="COCCC(CNc1ccc(-c2cccc(C(N)=O)c2)nn1)c1ccccc1F (stereo not shown)" tested_target="rabbit skeletal myofibrils (fast skeletal myofibrils)" reported_result="D (D=>20 uM)"
compound=CC(=O)N1CC(CNc2ccc(-c3ccc4[nH]ncc4c3)nn2)(c2ncccc2F)C1 tested_target="rabbit skeletal myofibrils (fast skeletal myofibrils)" reported_result="D (D=>20 uM)"
compound=NC(=O)c1ccc(F)c(-c2ccc(NCC3(c4cccc(O)n4)CCC3)nn2)c1 tested_target="rabbit skeletal myofibrils (fast skeletal myofibrils)" reported_result="D (D=>20 uM)"
compound=CC(C)(CNc1ccc(-c2ccc(C(N)=O)nc2)nn1)c1ccc(F)cc1 tested_target="rabbit skeletal myofibrils (fast skeletal myofibrils)" reported_result="B (B=1-10 uM)"

====

Tested on: rabbit skeletal myofibrils (fast skeletal myofibrils)
Assay: Activation of fast skeletal myofibrils (PUMA assay, PK/LDH-coupled ATPase at pCa25)
Assay type: biochemical
Conditions: median AC1.4 class, procedure of Example 39
Assay Metric: Mean AC1.4

compound_structure_string=NC(=O)Nc1ncc(-c2ccc(NCC3(c4ncccc4F)CCC3)nn2)cn1 reported_result="D (D=>20 uM)"
compound_structure_string=NC1(c2cnc(-c3ccc(NCC4(c5ncccc5F)CCC4)nn3)s2)COC1 reported_result="D (D=>20 uM)"
compound_structure_string=CC(C)(Nc1ccc(-c2ncc(C(N)=O)s2)nn1)c1cccc(OC(F)F)n1 reported_result="B (B=1-10 uM)"
compound_structure_string=O=C(NCc1cnc(-c2ccc(NCC3(c4ncccc4F)CCC3)nn2)s1)[C@@H]1CC(F)(F)CN1 reported_result="A (A=<1 uM)"
compound_structure_string=CC(C)(Nc1ccc(-c2cccc(C(N)=O)c2)nn1)c1cccc(OC(F)F)n1 reported_result="B (B=1-10 uM)"
compound_structure_string=NC(=O)N1CC(c2ccc(NCC3(c4ncccc4F)CCC3)nn2)C1 reported_result="D (D=>20 uM)"
compound_structure_string=COC(=O)Nc1ncc(-c2ccc(NCC3(c4ncccc4F)CCC3)nn2)cn1 reported_result="D (D=>20 uM)"
compound_structure_string=NC(=O)c1cccc(-c2ccc(NC3(c4ncccc4OC(F)F)CCC3)nn2)c1 reported_result="D (D=>20 uM)"
compound_structure_string=Fc1cccnc1C1(CNc2ccc(-c3ncc(-c4cn[nH]c4)s3)nn2)CCC1 reported_result="A (A=<1 uM)"
